# System: CBP bromodomain (Homo sapiens, UniProt Q92793)
# Sequence (Q92793 1085-1192 limits assumed): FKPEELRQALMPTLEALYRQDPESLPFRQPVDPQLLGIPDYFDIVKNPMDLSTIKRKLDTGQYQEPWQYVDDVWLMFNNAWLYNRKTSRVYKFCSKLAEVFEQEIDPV
# Protocol details: CBP AlphaLISA assay kit (CBP bromodomain binding to acetylated histone substrate)
# Conditions used: read-out: CBP ALPHA IC50
pIC50: −log10 of the molar value.
Result type: pIC50

Reference set (2 entries):
COC(=O)N1CCc2cccc(N3CCCc4cc(-c5cnn(C)c5)c(C(F)F)cc43)c2C1: > 8.00
CC(=O)N1Cc2cc(C3CCNC(=O)C3)cc(N3CCCc4cc(-c5cnn(C)c5)c(C(F)F)cc43)c2C1 (stereo not shown): < 8.00

Kindly review the next molecule as well.
Consider the molecule shown here: CC(=O)N1Cc2cc(C3CCC(=O)N(C)C3)cc(N3CCCc4cc(-c5cnn(C)c5)c(C(F)F)cc43)c2C1 (stereo not shown) What is its recorded pIC50?
> 8.00
